test_system: cAMP-dependent protein kinase catalytic subunit alpha (Homo sapiens)
assay_remarks: Inhibition of PKAalpha
reported_metric: IC50

Recorded IC50 (compound O=C1N=C(NCc2ccccc2)S/C1=C\c1c[nH]c2ncccc12 ): < 0.05 µM

====

test_system: Cell division cycle 7-related protein kinase (Homo sapiens, UniProt O00311)
Sequence (O00311 whole entry): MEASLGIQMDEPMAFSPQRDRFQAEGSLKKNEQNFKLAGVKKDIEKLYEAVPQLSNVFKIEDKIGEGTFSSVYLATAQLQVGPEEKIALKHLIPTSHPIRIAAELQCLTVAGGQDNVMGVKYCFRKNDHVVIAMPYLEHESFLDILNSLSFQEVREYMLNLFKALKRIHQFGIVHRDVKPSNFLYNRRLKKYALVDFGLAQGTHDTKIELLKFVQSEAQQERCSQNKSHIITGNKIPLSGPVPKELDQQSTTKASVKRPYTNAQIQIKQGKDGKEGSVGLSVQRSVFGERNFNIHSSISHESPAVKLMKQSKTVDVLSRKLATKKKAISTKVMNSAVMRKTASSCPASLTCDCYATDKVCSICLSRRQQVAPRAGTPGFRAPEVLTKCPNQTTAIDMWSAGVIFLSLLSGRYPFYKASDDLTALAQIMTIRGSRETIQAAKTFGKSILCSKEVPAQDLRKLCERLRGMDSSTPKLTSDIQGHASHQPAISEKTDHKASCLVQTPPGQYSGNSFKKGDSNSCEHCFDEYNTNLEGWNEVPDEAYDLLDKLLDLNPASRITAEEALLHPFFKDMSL
reported_metric: IC50 (nM)
One number for each entry, in nM.

// known answers, use as guide
compound_structure_string | IC50 [nM]
O=C1NC(NCc2ccc(Cl)cc2)=N/C1=C\c1c[nH]c2ncccc12 | 86
CCCCCCCNC1=N/C(=C\c2c[nH]c3ncccc23)C(=O)N1 | 247

Read the next record carefully.
Recorded IC50 (molecule O=C1NC(N2CCOCC2)=N/C1=C\c1c[nH]c2ncccc12 ): 47

====

Data export: IC50 values recorded with Cell division cycle 7-related protein kinase (Homo sapiens, UniProt O00311).

compound | result_value
C/C(=C1/N=C(NCc2ccccc2)NC1=O)c1c[nH]c2ncccc12 | > 10000 nM

Below are some compounds; for each one, tell me its IC50.
1. CC(C)(C)CCNC1=N/C(=C\c2c[nH]c3ncccc23)C(=O)N1
2. O=C1NC(NC2CC2)=N/C1=C\c1c[nH]c2ncccc12
3. O=C1NC(c2cccnc2)=N/C1=C\c1c[nH]c2ncccc12
4. O=C1NC(NCC2CCCO2)=N/C1=C\c1c[nH]c2ncccc12 (stereo unspecified)
5. O=C1NC(c2ccccc2)=N/C1=C\c1c[nH]c2ncccc12

24 nM
33 nM
60 nM
21 nM
50 nM
